Origin of measurements: patent US12269800B2

I'd be grateful if you could share measured Condition 2 Conversion (%) for these entries.
Assay type: physicochemical
Settings: DI water, 25° C., 0.5 mM, time 4 h
Please respond with the number in % and leave the unit unwritten.

Given item COc1ccc([C@]23CCN(C)[C@H]2CC2(CC3)OCC(C34CC5CC(CC(C5)C3)C4)O2)cc1OC (stereo partly shown) [Compound 281] , the value recorded as its Condition 2 Conversion (%) is 0

Given item COc1ccc([C@@]23CCC(=NNC(=O)c4ccc(F)cc4)C[C@@H]2N(C)CC3)cc1OC [Compound 220] , the value recorded as its Condition 2 Conversion (%) is 88.25

Given item COc1ccc([C@@]23CC/C(=N/NC(=O)Nc4ccccc4Cl)C[C@@H]2N(C)CC3)cc1OC [Compound 270] , the value recorded as its Condition 2 Conversion (%) is 1

Given item CCCCC(=O)OC1=C[C@@H]2N(C)CC[C@]2(c2ccc(OC)c(OC)c2)CC1 [Compound 268] , the value recorded as its Condition 2 Conversion (%) is 0

###

Experiment: Plasma Stability Assay of Example A3, human plasma
Conditions: % of prodrug compound remaining, 37° C., 15 min
VALUE KIND: Human Plasma Prodrug (%)
Please respond with the number in % and leave the unit unwritten.

Given item COc1ccc([C@@]23CCC(OC(=O)c4c(C)cccc4C)=C[C@@H]2N(C)CC3)cc1OC [Compound 372] , the value recorded as its Human Plasma Prodrug (%) is 97

Given item COc1ccc([C@@]23CCC(OC(=O)c4cccc(C)c4)=C[C@@H]2N(C)CC3)cc1OC [Compound 374] , the value recorded as its Human Plasma Prodrug (%) is 98

Given item COc1ccc([C@@]23CCC(OC(=O)c4ccc(C(C)C)cc4)=C[C@@H]2N(C)CC3)cc1OC [Compound 371] , the value recorded as its Human Plasma Prodrug (%) is 99

Given item COc1ccc([C@@]23CCC(OC(=O)c4ccc(C#N)cc4)=C[C@@H]2N(C)CC3)cc1OC [Compound 354] , the value recorded as its Human Plasma Prodrug (%) is 93

Given item COc1ccc([C@@]23CCC(OC(=O)C4CC4)=C[C@@H]2N(C)CC3)cc1OC [Compound 312] , the value recorded as its Human Plasma Prodrug (%) is 8.1

###

Assay: Plasma Stability Assay of Example A3, mouse plasma
Conditions: % of prodrug compound remaining, 37° C., 60 min
VALUE KIND: Mouse Plasma Prodrug (%)
Please respond with the number in % and leave the unit unwritten.

Given item `COc1ccc([C@@]23CCC(OC(=O)c4ccc(N(C)C)cc4)=C[C@@H]2N(C)CC3)cc1OC` , the value recorded as its Mouse Plasma Prodrug (%) is 9.9

Given item `C=C(C)C(=O)OC1=C[C@@H]2N(C)CC[C@]2(c2ccc(OC)c(OC)c2)CC1` , the value recorded as its Mouse Plasma Prodrug (%) is 1.3

Given item `COc1ccc([C@@]23CCC(OC(=O)C4CC4)=C[C@@H]2N(C)CC3)cc1OC` , the value recorded as its Mouse Plasma Prodrug (%) is 2.2

Given item `COc1ccc([C@@]23CCC(OC(=O)C(c4ccccc4)c4ccccc4)=C[C@@H]2N(C)CC3)cc1OC` , the value recorded as its Mouse Plasma Prodrug (%) is 1.6

Given item `COc1ccc([C@@]23CCC(OC(=O)C(C)(C)C)=C[C@@H]2N(C)CC3)cc1OC` , the value recorded as its Mouse Plasma Prodrug (%) is 8.2

Given item `COc1ccc([C@@]23CCC(OC(=O)c4ccc(F)cc4)=C[C@@H]2N(C)CC3)cc1OC` , the value recorded as its Mouse Plasma Prodrug (%) is 0

Given item `COc1ccc([C@@]23CCC(OC(=O)c4cccc(C)c4)=C[C@@H]2N(C)CC3)cc1OC` , the value recorded as its Mouse Plasma Prodrug (%) is 0

Given item `COc1ccc([C@@]23CCC(OC(=O)c4ccc(C#N)cc4)=C[C@@H]2N(C)CC3)cc1OC` , the value recorded as its Mouse Plasma Prodrug (%) is 5

Given item `COc1ccc([C@@]23CCC(OC(=O)c4ccc(C(F)(F)F)cc4)=C[C@@H]2N(C)CC3)cc1OC` , the value recorded as its Mouse Plasma Prodrug (%) is 0.1

Given item `COc1ccc([C@@]23CCC(OC(=O)c4cccc(C(C)(C)C)c4)=C[C@@H]2N(C)CC3)cc1OC` , the value recorded as its Mouse Plasma Prodrug (%) is 0

Given item `C/C=C(\C)C(=O)OC1=C[C@@H]2N(C)CC[C@]2(c2ccc(OC)c(OC)c2)CC1` , the value recorded as its Mouse Plasma Prodrug (%) is 0.1

Given item `COc1ccc([C@@]23CCC(OC(=O)c4cccc(N(C)C)c4)=C[C@@H]2N(C)CC3)cc1OC` , the value recorded as its Mouse Plasma Prodrug (%) is 0.1

Given item `COc1ccc([C@@]23CCC(OC(=O)c4cccc(C)c4C)=C[C@@H]2N(C)CC3)cc1OC` , the value recorded as its Mouse Plasma Prodrug (%) is 41

Given item `COc1ccc([C@@]23CCC(OC(=O)c4c(C)cccc4C)=C[C@@H]2N(C)CC3)cc1OC` , the value recorded as its Mouse Plasma Prodrug (%) is 88

Given item `COc1ccc([C@@]23CCC(OC(=O)c4ccc(C(C)C)cc4)=C[C@@H]2N(C)CC3)cc1OC` , the value recorded as its Mouse Plasma Prodrug (%) is 0
